Listing: Extent of Disease by Histologic Score: number of animals with score 1 of selected molecules
System: Pneumocystis carinii
experiment_summary: Treatment of Pneumocystis carinii pneumonia in Sprague-Dawley rats (extent of disease by histologic score)
Type: in vivo, male Sprague-Dawley rats
condition_context: 5 mg/kg i.v. daily, 14 days; 1 = scattered cysts, <5% of lung involved
observation_type: Extent of Disease by Histologic Score: number of animals with score 1 (animals)

| molecule_smiles | reported_measurement |
| --- | --- |
| N=C(N)c1ccc(NCCCCCNc2ccc(C(=N)N)cc2[N+](=O)[O-])c([N+](=O)[O-])c1 | 3 |
| COc1cc(C(=N)N)ccc1OCCCCCOc1ccc(C(=N)N)cc1OC | 3 |
| COc1cc(C2=NCCN2)ccc1OCCCCCOc1ccc(C2=NCCN2)cc1OC | 3 |
